The measurements presented in this section are drawn from PubChem BioAssay AID1918933.

Test system: 186277-243-T-J2-PDC complex spheroid viability;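 also: 7 day exposure to compounds; 100% = DMSO vehicle control viability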
Experiment: Anticancer human tumor 186277-243-T-J2-PDC patient-derived colon adenocarcinoma cell line growth inhibition
Details: second compound 3.16 µM; first compound 0.00949 µM; stronger effect = lower value
Record form. Attribute: viability, T/C. Fill in for each entry.
One number for each entry, in %.

List viability, T/C for every entry below, keeping the order given.
1. Nc1ncn(C2CC(O)C(CO)S2)c(=O)n1 (stereo unspecified) + NC1CC1c1ccc(-c2cccc(O)c2)cc1
2. CCN(c1cc(-c2ccc(CN3CCOCC3)cc2)cc(C(=O)NCc2c(C)cc(C)[nH]c2=O)c1C)C1CCOCC1 + NC1CC1c1ccc(-c2cccc(O)c2)cc1
3. COc1cc(C2c3cc4c(cc3C(OC3OC5COC(C)OC5C(O)C3O)C3COC(=O)C23)OCO4)cc(OC)c1O (stereo unspecified) + NC1CCC(NC2CC2c2ccccc2)CC1
4. CCc1c2c(nc3ccc(O)cc13)-c1cc3c(c(=O)n1C2)COC(=O)[C@]3(O)CC + NC1CCC(NC2CC2c2ccccc2)CC1

**A:**
105
106
111
38.2

List viability, T/C for every entry below, keeping the order given.
1. Nc1ncn(C2CC(O)C(CO)S2)c(=O)n1 (stereo unspecified) + NC1CCC(NC2CC2c2ccccc2)CC1
2. Nc1ccccc1NC(=O)c1ccc(CNC(=O)OCc2cccnc2)cc1 + NC1CC1c1ccc(-c2cccc(O)c2)cc1
3. Nc1ccn(C2OC(CO)C(O)C2(F)F)c(=O)n1 (stereo unspecified) + NC1CCC(NC2CC2c2ccccc2)CC1
4. O=C(C=Cc1cccc(S(=O)(=O)Nc2ccccc2)c1)NO + NC1CCC(NC2CC2c2ccccc2)CC1

**A:**
140
99.8
20.1
99.7

List viability, T/C for every entry below, keeping the order given.
1. CCc1c2c(nc3ccc(O)cc13)-c1cc3c(c(=O)n1C2)COC(=O)[C@]3(O)CC + NC1CC1c1ccc(-c2cccc(O)c2)cc1
2. NS(=O)(=O)OCC1CC(n2ccc3c(NC4CCc5ccccc54)ncnc32)CC1O (stereo unspecified) + NC1CCC(NC2CC2c2ccccc2)CC1
3. NS(=O)(=O)OCC1CC(n2ccc3c(NC4CCc5ccccc54)ncnc32)CC1O (stereo unspecified) + NC1CC1c1ccc(-c2cccc(O)c2)cc1
4. O=C(C=Cc1cccc(S(=O)(=O)Nc2ccccc2)c1)NO + NC1CC1c1ccc(-c2cccc(O)c2)cc1
5. COc1cc(C2c3cc4c(cc3C(OC3OC5COC(C)OC5C(O)C3O)C3COC(=O)C23)OCO4)cc(OC)c1O (stereo unspecified) + NC1CC1c1ccc(-c2cccc(O)c2)cc1
6. Nc1ccn(C2OC(CO)C(O)C2(F)F)c(=O)n1 (stereo unspecified) + NC1CC1c1ccc(-c2cccc(O)c2)cc1
7. CCN(c1cc(-c2ccc(CN3CCOCC3)cc2)cc(C(=O)NCc2c(C)cc(C)[nH]c2=O)c1C)C1CCOCC1 + NC1CCC(NC2CC2c2ccccc2)CC1
8. Nc1ccccc1NC(=O)c1ccc(CNC(=O)OCc2cccnc2)cc1 + NC1CCC(NC2CC2c2ccccc2)CC1

**A:**
24
113
116
118
100
15.8
110
118
